Reference source: ChEMBL document CHEMBL4619752

assay: in vivo; details: rat, po, 50 mg/kg
Measurement type: AUC (ng·h/mL)
Output spec: scalar in ng·h/mL, unitless text.

Prompt: Record request: AUC value, item "C[C@H](NS(=O)(=O)c1ccc(-c2sc(C(=O)NCC(C)(C)O)nc2C(=O)N2CCC(F)CC2)c(Cl)c1Cl)C(F)(F)F"
Completion: 1110

###

test: physchem; conditions: buffer, pH 7
Let's look at some compounds and their measured solubility.
Don't forget the unit after the value.

Some solved entries appear below for comparison.
Smiles data: C[C@H](NS(=O)(=O)c1ccc(-c2sc(C(=O)NCC(C)(C)O)nc2C(=O)N2CCC(F)CC2)c(Cl)c1Cl)C(F)(F)F
Data value: 116 µM
//
Smiles data: C[C@H](NS(=O)(=O)c1ccc(-c2sc(NC(=O)CC(C)(C)O)nc2C(=O)N2CCC(F)CC2)c(Cl)c1Cl)C(F)(F)F
Data value: 15 µM

Let us examine a further case.
Prompt: Record request: solubility value, item "C[C@H](NS(=O)(=O)c1ccc(-c2sc(C(=O)NCC(C)(C)O)nc2C(=O)N2CC[C@@H](F)C[C@@H]2C)c(Cl)c1Cl)C(F)(F)F"
Completion: 47 µM

###

experiment: in vivo; conditions: rat, po, 50 mg/kg
Measurement type: AUC (ng·h/mL)
Output spec: scalar in ng·h/mL, unitless text.

Prompt: Record request: AUC value, item "C[C@H](NS(=O)(=O)c1ccc(-c2sc(C(=O)NCC(C)(C)O)nc2C(=O)N2CCC(F)CC2)c(Cl)c1Cl)C(F)(F)F"
Completion: 31500

###

assay: in vivo; conditions: rat, po, 50 mg/kg
Measurement type: Cmax
Don't forget the unit after the value.

Prompt: Record request: Cmax value, item "C[C@H](NS(=O)(=O)c1ccc(-c2sc(C(=O)NCC(C)(C)O)nc2C(=O)N2CCC(F)CC2)c(Cl)c1Cl)C(F)(F)F"
Completion: 11200 ng/mL

###

Let's look at some compounds and their measured solubility.
assay: physchem; conditions: buffer, pH 7
Output spec: scalar in µM, unitless text.

Some solved entries appear below for comparison.
Compound: CC[C@H](NS(=O)(=O)c1ccc(-c2sc(C(=O)NCC(C)(C)O)nc2C(=O)N(CC)CC)c(Cl)c1Cl)C(F)(F)F
solubility, µM: 44
--
Compound: C[C@H](NS(=O)(=O)c1ccc(-c2sc(C(=O)NCC(C)(C)O)nc2C(=O)N2CCCC[C@@H]2C)c(Cl)c1Cl)C(F)(F)F
solubility, µM: 21

Prompt: Record request: solubility value, item "C[C@H](NS(=O)(=O)c1ccc(-c2sc(C(=O)NCC(C)(C)O)nc2C(=O)N2CCC[C@@H]2CF)c(Cl)c1Cl)C(F)(F)F"
Completion: 4

Prompt: Could you do the same for "CC(C)(O)CNC(=O)c1nc(C(=O)N2CCCCC2)c(-c2ccc(S(=O)(=O)NC(C)(C)C)c3ccccc23)s1" , please?
Completion: 1.1

Prompt: Could you do the same for "C[C@H](NS(=O)(=O)c1ccc(-c2sc(C(=O)NCC(C)(C)O)nc2C(=O)N2CC[C@H](F)C[C@@H]2C)c(Cl)c1Cl)C(F)(F)F" , please?
Completion: 54

Prompt: Could you do the same for C[C@H](NS(=O)(=O)c1ccc(-c2sc(C(=O)NCC(C)(C)O)nc2C(=O)N2CC3CC3C2)c(Cl)c1Cl)C(F)(F)F (some centres not stated) , please?
Completion: 8.7
